# Tested on: TK-10 renal
# experiment: NCI-60 one-dose screen, 48 h (100 = growth as untreated, 0 = no growth, -100 = all killed)
# test context: 10 µM unless noted
# Method: Growth inhibition of the TK-10 human tumor cell line is measured as a screen for anti-cancer activity. Cells are grown in 96 well plates and exposed to the test compound for 48 hours. Compounds are tested at a single concentration, which is 10^-5 M for most compounds. The reported endpoint is percent growth (GI% or GIPRCNT), where numbers from 0 - 100% represent growth inhibition, and numbers from -100% - 0 represent cell death. For example, a value of 40 represents 60% growth inhibition. […]
The panel holds about 83,000 compounds, 20% with a hit somewhere; the sample as a whole holds those more often.
The following compounds are listed with their measured growth values.
measurement label: growth (%)

- COc1ccc2nc(-c3ccc(Cl)cc3)cc(-c3nnc(SCC(=O)Nc4ccc(/C(C)=N\O)cc4)o3)c2c1: 79.4
- CCCCc1n(Cc2ccc3ccccc3n2)cc[n+]1Cc1ccc2ccccc2c1: -5.08
- Nc1c(C(=O)Nc2cccc3ccccc23)sc2nc3c(cc12)CCCCCC3: 55.3

These measurements were taken from PubChem BioAssay (NCI).
